System: Staphylococcus aureus
Assay: Antibacterial activity against drug-sensitive Staphylococcus aureus ATCC25923 assessed as inhibition of bacterial growth
Assay type: functional
Classification by MIC50 | ranges: low class: < 0.2 µM; middle class: ≥ 0.2 µM and < 1 µM; high class: ≥ 1 µM

Example results:
MOLECULE	TARGET UNDER TEST	CLASS NAME
CCN(CC)CCCC(C)Nc1[nH]c2c(F)cc(F)cc2c(=O)c1C(C)=O (stereo not given)	Staphylococcus aureus	high class
CC(=O)c1c(N2CCCCC2)[nH]c2c(F)cc(F)cc2c1=O	Staphylococcus aureus	high class
COc1ccc(CNc2[nH]c3c(F)cc(F)cc3c(=O)c2C(C)=O)cc1	Staphylococcus aureus	high class
CC(C)C(=O)c1c(Nc2ccc(F)c(F)c2F)[nH]c2c(F)cc(F)cc2c1=O	Staphylococcus aureus	low class
CC[C@H]1OC(=O)[C@H](C)[C@@H](O[C@H]2C[C@@](C)(OC)[C@@H](O)[C@H](C)O2)[C@H](C)[C@@H](O[C@@H]2O[C@H](C)C[C@H](N(C)C)[C@H]2O)[C@](C)(O)C[C@@H](C)C(=O)[C@H](C)[C@@H](O)[C@]1(C)O	Staphylococcus aureus	middle class
CN[C@H](CC(C)C)C(=O)N[C@H]1C(=O)N[C@@H](CC(N)=O)C(=O)N[C@H]2C(=O)N[C@H]3C(=O)N[C@H](C(=O)N[C@H](C(=O)O)c4cc(O)cc(O)c4-c4cc3ccc4O)[C@H](O)c3ccc(c(Cl)c3)Oc3cc2cc(c3O[C@@H]2O[C@H](CO)[C@@H](O)[C@H](O)[C@H]2O[C@H]2C[C@](C)(N)[C@H](O)[C@H](C)O2)Oc2ccc(cc2Cl)[C@H]1O	Staphylococcus aureus	high class

Ask | Which category fits this record: "CC(=O)c1c(NCc2ccc(F)cc2)[nH]c2c(F)cc(F)cc2c1=O"
Reply | high class

Ask | Which category fits this record: "CC(=O)c1c(Nc2ccc(F)cc2F)[nH]c2c(F)cc(F)cc2c1=O"
Reply | high class

Ask | Which category fits this record: "CC(=O)c1c(Nc2ccc(Cl)cc2Cl)[nH]c2c(F)cc(F)cc2c1=O"
Reply | middle class

Ask | Which category fits this record: "CC(=O)c1c(Nc2ccc(Cl)cc2Cl)[nH]c2c(Cl)ccc(C(F)(F)F)c2c1=O"
Reply | middle class

Ask | Which category fits this record: "CC(=O)c1c(Nc2ccc(Cl)cc2Cl)[nH]c2c(Cl)cc(Cl)c(Cl)c2c1=O"
Reply | middle class

Ask | Which category fits this record: "CC(C)C(=O)c1c(Nc2ccc(F)cc2F)[nH]c2c(Cl)cc(Cl)c(Cl)c2c1=O"
Reply | low class

* * *

Recorded log10 of MIC50 for the following compounds
Tested on: Staphylococcus aureus
Assay: Ex vivo antibacterial activity against methicillin-resistant Staphylococcus aureus assessed as inhibition of bacterial growth by cell infection model
Type: functional
Short version: log10 scale, MIC50, µM.

// below: answered compounds
> print(dat)
                              smiles.record  observed.value
1  CC(=O)c1c(Nc2ccc(F)c(F)c2F)[nH]c2c(F)cc(F)cc2c1=O            0.83
2  CC(=O)c1c(Nc2ccc(Cl)cc2Cl)[nH]c2c(Cl)ccc(C(F)(F)F)c2c1=O            1.18
3  CC(C)C(=O)c1c(Nc2ccc(Cl)cc2Cl)[nH]c2c(F)cc(F)cc2c1=O            0.16

Ask | Tell me measured log10 of MIC50 for "CC(C)C(=O)c1c(Nc2ccc(F)cc2F)[nH]c2c(F)cc(F)cc2c1=O" please.
Reply | 1.00

Ask | Tell me measured log10 of MIC50 for "CC(=O)c1c(Nc2ccc(F)cc2F)[nH]c2c(F)cc(F)cc2c1=O" please.
Reply | 0.98

Ask | Tell me measured log10 of MIC50 for "CC(=O)c1c(Nc2ccc(Cl)cc2Cl)[nH]c2c(Cl)cc(Cl)c(Cl)c2c1=O" please.
Reply | 1.54
